# Test system: HCT-15
quantity_kind: GI50

COC(=O)c1cc2ccccc2c2nc3ccccc3c(Cl)c12: > 100 µM

Prompt line: Please list GI50 recorded for the compound CC#COP(=O)(OCC)OCC
Response line: > 100 µM

Prompt line: Please list GI50 recorded for the compound Nc1nc(=O)c2c([nH]1)NCC(CNc1ccc(C(=O)N[C@@H](CCC(=O)O)C(=O)O)cc1)N2C=O (some centres not stated) [LEUCOVORIN CALCIUM]
Response line: > 125 µM

Prompt line: Please list GI50 recorded for the compound C1OC1CN1CCN(CC2CO2)CC1 (configuration not stated)
Response line: > 100 µM

Prompt line: Please list GI50 recorded for the compound C1CSCCSCCCSC2CCCCC2SC1 (configuration not stated)
Response line: > 100 µM

Prompt line: Please list GI50 recorded for the compound C/C(=N\NC(=S)N1CCCCC1)c1cccc(C)n1
Response line: < 0.01 µM

Prompt line: Please list GI50 recorded for the compound Clc1cc(-c2csc(Cl)c2)cs1
Response line: > 100 µM

Prompt line: Please list GI50 recorded for the compound COC1CCC(OS(C)(=O)=O)C(C)O1 (configuration not stated)
Response line: > 10 µM

Prompt line: Please list GI50 recorded for the compound NS(=O)(=O)c1nc(S(=O)(=O)O)c2[nH]cnc2n1
Response line: > 100 µM

Prompt line: Please list GI50 recorded for the compound CC(C)(C)C1CCC2c3c([nH]c4ccccc34)C3C(=O)N(c4ccc5c(c4)C(=O)c4ccccc4C5=O)C(=O)C3C2C1 (configuration not stated)
Response line: > 100 µM

Prompt line: Please list GI50 recorded for the compound O=C(CP(=O)(c1ccccc1)c1ccccc1)c1cccc(C(=O)CP(=O)(c2ccccc2)c2ccccc2)c1
Response line: > 100 µM

Prompt line: Please list GI50 recorded for the compound C/C(=N\NC(=S)NC1CCCC1)c1ccccn1
Response line: < 0.01 µM

====

# System: 786-0
# method_description: NCI tumour cell line growth inhibition, 48 h
Calls of active or inactive are those of the source. No stated cut-off is given here; in the data, active = GI50 up to about 1.1 µM and inactive = higher.
# GI50 listing for each entry below

Reference set, count: 8
CC(C)(C)OC(=O)NC1CC2(C=C(Br)C(=O)C(Br)=C2)OC1=O (stereo not given): 2.72 µM (inactive)
COc1cc(C(C)c2cc3c(cc2OCCN)OCO3)cc(OC)c1OC (stereo not given): > 100 µM (inactive)
Cn1c(=O)oc2cc(C(O)CN3CCN(Cc4ccccn4)CC3)c(Cl)cc21 (stereo not given): > 100 µM (inactive)
c1csc(-c2csc(-c3cccs3)c2)c1: 52.1 µM (inactive)
Cc1ccc(N2C(=O)C3c4[nH]c5ccccc5c4C4CCC(C(C)(C)C)CC4C3C2=O)cc1 (stereo not given): 5.06 µM (inactive)
CC(C(N)=O)N(C)C(=O)c1cnc2ccccc2c1 (stereo not given): > 100 µM (inactive)
O=C1C(c2ccccc2)=[N+]([O-])c2ccccc21: 17.7 µM (inactive)
CC(C)C(=O)/C=C/c1ccc(Cl)cc1Cl: 14.2 µM (inactive)

Prompt line: Please list GI50 recorded for the compound COC(=O)c1c(O)ccc2c1c1c(n2Cc2ccc(OC)cc2)C(=O)c2ccccc2C1=O
Response line: 12 µM (inactive)

Prompt line: Please list GI50 recorded for the compound COc1ccc(/C=C2\CN(C)C/C(=C\c3ccc(OC)cc3)C2=O)cc1
Response line: 28.6 µM (inactive)
